Biological target: T1, CRBN, Q96SW2;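 further: pooled lentiviral library of zinc finger degron-EGFP fusions in mCherry-positive Jurkat cells, FACS-sorted after compound exposure, with degron abundance counted by next-generation sequencing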
T1 chain: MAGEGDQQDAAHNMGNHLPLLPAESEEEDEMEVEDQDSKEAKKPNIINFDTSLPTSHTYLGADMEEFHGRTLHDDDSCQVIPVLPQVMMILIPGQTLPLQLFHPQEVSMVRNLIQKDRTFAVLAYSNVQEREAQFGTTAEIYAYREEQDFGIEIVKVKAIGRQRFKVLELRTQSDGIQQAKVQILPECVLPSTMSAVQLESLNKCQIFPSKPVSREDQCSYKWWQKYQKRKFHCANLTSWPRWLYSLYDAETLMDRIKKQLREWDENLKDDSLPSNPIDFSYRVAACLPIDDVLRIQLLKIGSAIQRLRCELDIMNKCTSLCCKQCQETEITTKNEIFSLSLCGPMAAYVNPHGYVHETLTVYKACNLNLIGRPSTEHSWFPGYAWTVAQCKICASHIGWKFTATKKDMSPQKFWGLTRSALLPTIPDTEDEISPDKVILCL
Experiment: log2 fold change of degron read counts, EGFP-low vs EGFP+ sorted cells (limma voom), compound-induced degradation; higher = more compound-induced degradation of the degron-EGFP fusion; degrons are variants of IKZF1/3 zinc finger 2; compound dose not given here
Settings: Jurkat; 18 h; compound: thalidomide
Over roughly 8,300 sequences, “log2 fold change of degron read counts, EGFP-low vs EGFP+ sorted cells (limma voom), compound-induced degradation” has its median near -1.1; the highest 2% begin near 3.2. The sample as a whole holds a higher share of the highest values than the screen did.
# log2 fold change of degron read counts listing for each entry below
# print the numeric value only

Fill in the blank: the reported log2 fold change of degron read counts of FICEQCGAIFTQKGNLLRHIKL [46F_47I_49E_50Q_52G_53A_54I_55F_67L_, Q9UKT9] is ____. -0.929
